All figures here come from patent US20070105779A1.

Tested on: T cell clone LAU 50/4D7
Test: 51Cr release assay, T2 cells pulsed with serial dilutions of peptide, recognition by CTL clone LAU 50/4D7
Format: cell-based, human
Settings: T2 cells pulsed with peptide, clone LAU 50/4D7; read-out: 50% maximal lysis
No end group written: not given here.
We label by threshold. Values of EC50 strictly beneath 0.06 nM are 1.0. Values of 0.06 nM and up are 0.0.

sequence.content: AAAAKIFYA [SEQ ID NO: 3]
class.label: 0.0
//
sequence.content: AAGPKIFYA [SEQ ID NO: 2]
class.label: 0.0
//
sequence.content: AAAPKAFYA [SEQ ID NO: 5]
class.label: 0.0
//
sequence.content: AAAPKIFYA [SEQ ID NO: 1]
class.label: 1.0
//
sequence.content: AAAPAIFYA [SEQ ID NO: 4]
class.label: 0.0
